Where do these numbers come from? They come from PubChem BioAssay (NCATS).

# System: AA1029
# experimentalDetails: qHTS profiling for inhibitors of Plasmodium falciparum proliferation (AID 504749);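 also: 0% = DMSO vehicle and full inhibition = artemisinin control; nearly all actives have a fitted effect of over 60% in size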
# measurementSetup: P. falciparum in erythrocytes, SYBR Green DNA, 72 h; series mostly up to 28.7 µM
Inconclusive results are not listed. Calls of active or inactive are those of the source. Calls follow the shape of the dose curve; as a rule, active = well fitted inhibition curve with a large enough effect; inconclusive = small, poorly fitted or top-dose-only effect; inactive = flat fitted curve, though single readings scatter.
Could you please pick one outcome from this set? TRUE = active, FALSE = inactive

Some solved entries appear below for comparison.
| molecule | systemName | assignedCategory |
| --- | --- | --- |
| C[N+](C)(C)CCOC(=O)C(O)(c1ccccc1)c1ccccc1 | AA1029 | FALSE |
| CC(C)[N+](C)(CCC(C(N)=O)(c1ccccc1)c1ccccc1)C(C)C | AA1029 | FALSE |
| C[C@H]1C(=O)O[C@@H]2CCN3CC=C(COC(=O)[C@](C)(O)[C@]1(C)O)[C@H]23 | AA1029 | FALSE |
| CCC1(c2ccccc2)CCC(=O)NC1=O (stereo not given) | AA1029 | FALSE |
| ClC1=C(Cl)C2(Cl)C(CBr)CC1(Cl)C2(Cl)Cl (stereo not given) | AA1029 | FALSE |

# input for lookup
IN: Query: recorded result category for COP(=O)(OC)C(O)C(Cl)(Cl)Cl (stereo not given) in this test
OUT: FALSE

---

# Test system: DFO2036
# experimentalDetails: qHTS profiling for inhibitors of Plasmodium falciparum proliferation (AID 504749);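 also: 0% = DMSO vehicle and full inhibition = artemisinin control; nearly all actives have a fitted effect of over 60% in size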
# measurementSetup: P. falciparum in erythrocytes, SYBR Green DNA, 72 h; series mostly up to 28.7 µM
Inconclusive results are not listed. Active and inactive are the calls of the source. Calls follow the shape of the dose curve; as a rule, active = well fitted inhibition curve with a large enough effect; inconclusive = small, poorly fitted or top-dose-only effect; inactive = flat fitted curve, though single readings scatter.
The categories you may choose from are true (1) (active), false (0) (inactive)

For orientation, consider the following solved cases.
| compound | systemName | assignedCategory |
| --- | --- | --- |
| COP(=O)(OC)C(O)C(Cl)(Cl)Cl (stereo unspecified) | DFO2036 | false (0) |
| OC(c1ccccc1)(c1ccccc1)C1CCNCC1 | DFO2036 | false (0) |
| NCc1cccnc1 | DFO2036 | false (0) |

IN: # fetch the recorded call for CCNc1nc(Cl)nc(NCC)n1 here
OUT: false (0)

IN: Write down the call the test reported for this compound. Item: CC(C)(C)OC(=O)c1ncn2c1[C@@H]1CCCN1C(=O)c1c(Br)cccc1-2
OUT: false (0)

IN: Tell me the recorded outcome of this test for COC(=O)C1=CCCN(C)C1 .
OUT: false (0)

IN: Query: recorded result category for CC(C)NCC(O)c1ccc(N)c(C#N)c1 (stereo unspecified) in this test
OUT: false (0)

IN: Answer briefly: the call reported for COc1ccc(C(=O)N2CCCC2=O)cc1 in this assay.
OUT: false (0)

---

# experimentalDetails: qHTS of pediatric cancer cell lines to identify multiple opportunities for drug repurposing: Primary screen for SK-N-MC cells (AID 1347093)
# measurementSetup: SK-N-MC viability, CellTiter-Glo luminescence, 48 h; series mostly up to 46 µM
Records with an inconclusive call do not appear. The source made the active and inactive calls. The call rests on the fitted dose curve; in most records, active means well fitted cell-killing curve with a large enough effect; inconclusive means small, poorly fitted or top-dose-only effect; inactive means no such curve, though single readings can be large or run the other way.
Form entry, call: pick from active, inactive

| compound | assignedCategory |
| --- | --- |
| COc1ccc2[nH]cc(CCN(C(C)C)C(C)C)c2c1 | inactive |
| CCOC(=O)NC(C)(C)Cc1ccc(Cl)cc1 | inactive |
| CCCOC(=O)Cc1ccc(OCC(=O)N(CC)CC)c(OC)c1 | inactive |
| CN1C(=O)CN=C(c2ccccc2)c2cc(Cl)ccc21 | inactive |
| C[C@]12CC[C@H]3[C@@H](CCC4=CC(=O)CC[C@@H]43)[C@@H]1CC[C@@H]2O | inactive |

IN: Returns: the outcome recorded for CN(C)C(=S)SSC(=S)N(C)C in this assay.
OUT: active

IN: Test call, this compound: ClCc1cccc(Cl)c1
OUT: inactive

IN: Called result for ClCCCN1CCN(c2cccc(Cl)c2)CC1
OUT: inactive

IN: # outcome recorded in this test, key = CC[C@H](O)C(C[C@H](C)N(C)C)(c1ccccc1)c1ccccc1
OUT: active

IN: Identify the outcome logged in this assay for the compound shown: CN1[C@@H]2CC[C@H]1CC(OC(=O)c1cc(Cl)cc(Cl)c1)C2 (stereo partly drawn)
OUT: active

IN: Recorded test outcome, item CCOC(=O)NC(O)C(Cl)(Cl)Cl (stereo not drawn)
OUT: inactive

IN: State the result this test recorded for Cc1c(Cl)c(=O)oc2cc(OP(=O)(OCCCl)OCCCl)ccc12 .
OUT: inactive

IN: For Nc1ccccc1C(=O)OCC(O)CO (stereo not drawn) , which call appears in the assay record?
OUT: inactive
